# Target or test system: PDE3A (Homo sapiens)

Structure: C[C@@H]1CN(Cc2ncccn2)C[C@H]1c1cn2c(C3CCOCC3)ncc2c(=O)[nH]1
IC50: > 100 µM

---

# Target or test system: PDE5A1 (Homo sapiens)
pIC50: −log10 of the molar value.

Structure: C[C@@H]1CN(Cc2ncccn2)C[C@H]1c1cn2c(C3CCOCC3)ncc2c(=O)[nH]1
pIC50: < 4.00

---

# Target or test system: PDE1C (Homo sapiens, UniProt Q14123)
# Sequence (Q14123 whole entry): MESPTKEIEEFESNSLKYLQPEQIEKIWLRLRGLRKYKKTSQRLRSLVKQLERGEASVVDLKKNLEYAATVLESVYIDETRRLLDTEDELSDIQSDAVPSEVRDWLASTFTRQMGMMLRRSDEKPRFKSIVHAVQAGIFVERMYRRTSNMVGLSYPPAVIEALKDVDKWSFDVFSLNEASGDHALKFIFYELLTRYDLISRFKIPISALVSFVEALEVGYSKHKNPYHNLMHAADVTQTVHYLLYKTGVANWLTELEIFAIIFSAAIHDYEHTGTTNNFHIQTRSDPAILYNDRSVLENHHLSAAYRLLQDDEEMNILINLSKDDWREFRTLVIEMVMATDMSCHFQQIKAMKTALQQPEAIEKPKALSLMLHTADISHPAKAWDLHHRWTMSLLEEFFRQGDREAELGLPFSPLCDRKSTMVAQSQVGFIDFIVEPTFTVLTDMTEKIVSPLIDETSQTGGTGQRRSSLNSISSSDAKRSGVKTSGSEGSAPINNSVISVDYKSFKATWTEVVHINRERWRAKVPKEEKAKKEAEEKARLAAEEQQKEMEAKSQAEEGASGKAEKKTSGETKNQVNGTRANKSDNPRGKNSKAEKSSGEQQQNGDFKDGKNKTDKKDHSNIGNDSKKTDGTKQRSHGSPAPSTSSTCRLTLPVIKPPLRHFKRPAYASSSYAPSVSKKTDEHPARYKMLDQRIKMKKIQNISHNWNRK
pIC50: −log10 of the molar value.

Structure: C[C@@H]1CN(Cc2ncccn2)C[C@H]1c1cn2c(C3CCOCC3)ncc2c(=O)[nH]1
pIC50: 4.91

---

# Target or test system: PDE8A1 (Homo sapiens)
# Sequence (O60658 whole entry): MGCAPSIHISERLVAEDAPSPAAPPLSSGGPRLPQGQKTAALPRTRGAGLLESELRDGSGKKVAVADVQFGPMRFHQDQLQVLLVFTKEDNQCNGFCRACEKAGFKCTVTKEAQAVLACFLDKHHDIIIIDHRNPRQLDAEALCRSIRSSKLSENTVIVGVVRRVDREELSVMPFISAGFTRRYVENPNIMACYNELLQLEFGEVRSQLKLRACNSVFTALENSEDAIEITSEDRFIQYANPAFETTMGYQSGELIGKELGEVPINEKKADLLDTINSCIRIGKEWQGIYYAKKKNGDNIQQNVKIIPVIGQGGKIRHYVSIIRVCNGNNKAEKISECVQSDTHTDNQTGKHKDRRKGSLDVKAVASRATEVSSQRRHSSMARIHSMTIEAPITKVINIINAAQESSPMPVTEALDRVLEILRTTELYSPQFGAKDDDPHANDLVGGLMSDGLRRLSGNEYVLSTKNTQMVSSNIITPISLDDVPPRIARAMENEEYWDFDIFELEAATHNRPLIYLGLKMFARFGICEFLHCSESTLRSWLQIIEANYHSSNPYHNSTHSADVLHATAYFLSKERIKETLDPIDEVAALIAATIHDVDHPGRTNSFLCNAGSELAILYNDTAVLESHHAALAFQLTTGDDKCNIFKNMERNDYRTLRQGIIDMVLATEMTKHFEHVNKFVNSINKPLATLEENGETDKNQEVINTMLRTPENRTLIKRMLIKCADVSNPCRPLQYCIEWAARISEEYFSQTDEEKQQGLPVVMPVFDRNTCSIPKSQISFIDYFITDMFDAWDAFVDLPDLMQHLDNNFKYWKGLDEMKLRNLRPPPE
pIC50: −log10 of the molar value.

Structure: C[C@@H]1CN(Cc2ncccn2)C[C@H]1c1cn2c(C3CCOCC3)ncc2c(=O)[nH]1
Target or test system: PDE8A1 (Homo sapiens)
pIC50: < 4.00

---

# Target or test system: UniProt Q13370
# Sequence (Q13370 whole entry): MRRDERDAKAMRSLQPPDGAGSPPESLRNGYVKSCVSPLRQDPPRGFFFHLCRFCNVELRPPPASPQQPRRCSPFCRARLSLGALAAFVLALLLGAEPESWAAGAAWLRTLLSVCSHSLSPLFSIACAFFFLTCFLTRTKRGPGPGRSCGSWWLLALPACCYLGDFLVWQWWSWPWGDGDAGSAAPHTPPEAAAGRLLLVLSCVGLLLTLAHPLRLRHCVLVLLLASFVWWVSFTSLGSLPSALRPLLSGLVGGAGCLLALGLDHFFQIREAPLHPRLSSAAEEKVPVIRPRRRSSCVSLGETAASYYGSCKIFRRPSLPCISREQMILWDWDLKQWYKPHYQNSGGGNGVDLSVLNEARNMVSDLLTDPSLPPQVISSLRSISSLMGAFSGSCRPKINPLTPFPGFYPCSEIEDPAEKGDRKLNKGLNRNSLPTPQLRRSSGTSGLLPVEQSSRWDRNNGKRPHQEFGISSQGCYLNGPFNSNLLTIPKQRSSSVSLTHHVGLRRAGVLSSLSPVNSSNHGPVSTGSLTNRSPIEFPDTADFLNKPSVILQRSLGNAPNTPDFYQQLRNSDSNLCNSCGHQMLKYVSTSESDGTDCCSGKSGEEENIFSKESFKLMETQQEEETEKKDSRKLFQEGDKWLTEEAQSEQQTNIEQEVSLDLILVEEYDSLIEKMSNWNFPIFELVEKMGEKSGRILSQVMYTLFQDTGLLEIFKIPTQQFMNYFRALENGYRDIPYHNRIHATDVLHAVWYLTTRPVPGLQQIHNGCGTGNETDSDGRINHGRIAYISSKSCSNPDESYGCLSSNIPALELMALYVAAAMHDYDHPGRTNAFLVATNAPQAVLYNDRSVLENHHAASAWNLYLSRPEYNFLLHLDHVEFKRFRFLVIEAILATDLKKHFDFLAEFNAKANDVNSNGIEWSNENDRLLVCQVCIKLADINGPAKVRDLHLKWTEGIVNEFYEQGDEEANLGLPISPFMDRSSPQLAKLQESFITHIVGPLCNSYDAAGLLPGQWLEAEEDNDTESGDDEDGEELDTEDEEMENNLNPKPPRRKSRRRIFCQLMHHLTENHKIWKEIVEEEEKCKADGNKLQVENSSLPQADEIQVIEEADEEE
Measure name: IC50

Structure: C[C@@H]1CN(Cc2ncccn2)C[C@H]1c1cn2c(C3CCOCC3)ncc2c(=O)[nH]1
Assay result: > 100 µM

---

# Target or test system: PDE5A2 (Homo sapiens, UniProt O76074)
pIC50: −log10 of the molar value.
Measure name: pIC50

Structure: C[C@@H]1CN(Cc2ncccn2)C[C@H]1c1cn2c(C3CCOCC3)ncc2c(=O)[nH]1
Assay result: 4.09

---

# Target or test system: PDE4D2 (Homo sapiens, UniProt Q08499)
pIC50: −log10 of the molar value.
Measure name: pIC50

Molecule: C[C@@H]1CN(Cc2ncccn2)C[C@H]1c1cn2c(C3CCOCC3)ncc2c(=O)[nH]1 [IMR-687]
Assay result: < 4.00

---

# Target or test system: PDE4A1 (Homo sapiens, UniProt P27815)
Measure name: IC50

Compound: C[C@@H]1CN(Cc2ncccn2)C[C@H]1c1cn2c(C3CCOCC3)ncc2c(=O)[nH]1 [IMR-687]
Measure name: IC50
Assay result: > 100 µM

---

# Target or test system: UniProt P54750
# Sequence (P54750 whole entry): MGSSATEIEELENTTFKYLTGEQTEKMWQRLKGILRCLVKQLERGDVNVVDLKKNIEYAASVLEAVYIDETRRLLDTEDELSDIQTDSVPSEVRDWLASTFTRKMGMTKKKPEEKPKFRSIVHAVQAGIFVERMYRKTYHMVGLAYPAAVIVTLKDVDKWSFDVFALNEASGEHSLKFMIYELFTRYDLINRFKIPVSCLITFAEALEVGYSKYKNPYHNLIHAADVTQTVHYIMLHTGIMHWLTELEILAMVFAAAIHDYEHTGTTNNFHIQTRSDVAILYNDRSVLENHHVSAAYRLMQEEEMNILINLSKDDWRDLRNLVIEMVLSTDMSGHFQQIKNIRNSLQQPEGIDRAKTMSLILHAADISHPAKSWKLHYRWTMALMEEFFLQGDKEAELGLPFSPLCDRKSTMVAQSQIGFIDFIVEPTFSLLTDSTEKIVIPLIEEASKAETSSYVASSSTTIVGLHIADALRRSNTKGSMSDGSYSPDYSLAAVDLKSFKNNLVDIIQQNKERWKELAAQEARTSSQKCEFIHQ
Measure name: IC50 (µM)

Compound: C[C@@H]1CN(Cc2ncccn2)C[C@H]1c1cn2c(C3CCOCC3)ncc2c(=O)[nH]1 [IMR-687]
Measure name: IC50
Uom: µM
Assay result: 88.4

---

# Target or test system: PDE4D5 (Homo sapiens, UniProt Q08499)

Structure: C[C@@H]1CN(Cc2ncccn2)C[C@H]1c1cn2c(C3CCOCC3)ncc2c(=O)[nH]1
IC50: > 100 µM

---

# Target or test system: PDE6AB (Homo sapiens, UniProt P16499+P35913)
# Assay summary: PDE enzyme inhibition, radiometric assay
# Assay type: biochemical
pIC50: −log10 of the molar value.

Structure: C[C@@H]1CN(Cc2ncccn2)C[C@H]1c1cn2c(C3CCOCC3)ncc2c(=O)[nH]1
pIC50: < 4.00

---

# Target or test system: PDE7A (Homo sapiens)
pIC50: −log10 of the molar value.

Structure: C[C@@H]1CN(Cc2ncccn2)C[C@H]1c1cn2c(C3CCOCC3)ncc2c(=O)[nH]1
pIC50: < 4.00

---

# Target or test system: PDE4B1 (Homo sapiens, UniProt Q07343)
# Sequence (Q07343 whole entry): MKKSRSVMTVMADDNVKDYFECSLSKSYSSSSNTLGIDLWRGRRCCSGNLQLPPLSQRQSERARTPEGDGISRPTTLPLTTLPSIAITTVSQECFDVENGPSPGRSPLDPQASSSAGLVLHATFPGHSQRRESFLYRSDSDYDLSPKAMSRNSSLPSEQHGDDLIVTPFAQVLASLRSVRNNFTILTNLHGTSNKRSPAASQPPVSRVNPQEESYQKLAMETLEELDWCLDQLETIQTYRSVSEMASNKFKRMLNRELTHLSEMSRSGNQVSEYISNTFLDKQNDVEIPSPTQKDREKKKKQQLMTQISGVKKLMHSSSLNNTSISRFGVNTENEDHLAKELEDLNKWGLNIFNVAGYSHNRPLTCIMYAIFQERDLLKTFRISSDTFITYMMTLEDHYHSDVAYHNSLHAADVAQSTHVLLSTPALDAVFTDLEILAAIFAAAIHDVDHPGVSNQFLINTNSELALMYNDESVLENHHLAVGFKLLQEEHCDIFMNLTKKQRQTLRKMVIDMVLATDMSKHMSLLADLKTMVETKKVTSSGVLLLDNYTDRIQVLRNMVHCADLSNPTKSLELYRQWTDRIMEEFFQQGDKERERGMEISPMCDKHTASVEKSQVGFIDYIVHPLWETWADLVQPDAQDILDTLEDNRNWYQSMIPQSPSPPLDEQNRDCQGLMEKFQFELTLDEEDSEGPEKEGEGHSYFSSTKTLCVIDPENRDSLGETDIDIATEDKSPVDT

Structure: C[C@@H]1CN(Cc2ncccn2)C[C@H]1c1cn2c(C3CCOCC3)ncc2c(=O)[nH]1
IC50: > 100 µM

---

# Target or test system: PDE4D7 (Homo sapiens)

Compound: C[C@@H]1CN(Cc2ncccn2)C[C@H]1c1cn2c(C3CCOCC3)ncc2c(=O)[nH]1 [IMR-687]
Target or test system: PDE4D7 (Homo sapiens)
IC50: > 100 µM

---

# Target or test system: PDE9A2 (Homo sapiens)
# Sequence (O76083 1-533 isoform O76083-2): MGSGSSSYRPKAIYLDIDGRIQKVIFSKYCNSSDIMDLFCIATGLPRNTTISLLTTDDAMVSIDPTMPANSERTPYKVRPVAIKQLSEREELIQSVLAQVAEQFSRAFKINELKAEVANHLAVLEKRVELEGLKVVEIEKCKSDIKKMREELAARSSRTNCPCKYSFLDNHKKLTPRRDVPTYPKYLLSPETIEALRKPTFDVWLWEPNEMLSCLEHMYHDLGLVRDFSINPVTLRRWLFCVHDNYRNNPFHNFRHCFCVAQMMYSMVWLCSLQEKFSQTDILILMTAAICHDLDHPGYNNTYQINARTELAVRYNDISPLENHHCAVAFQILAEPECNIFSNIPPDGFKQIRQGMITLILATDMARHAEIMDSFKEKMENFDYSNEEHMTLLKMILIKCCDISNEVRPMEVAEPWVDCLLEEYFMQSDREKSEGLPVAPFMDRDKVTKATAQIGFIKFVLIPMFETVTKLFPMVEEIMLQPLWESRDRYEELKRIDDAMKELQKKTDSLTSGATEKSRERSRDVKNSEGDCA
# Assay summary: PDE enzyme inhibition, radiometric assay
# Format: biochemical
# Test conditions: IC50, recombinant human PDE9A2
pIC50: −log10 of the molar value.
Measure name: pIC50

Compound: C[C@@H]1CN(Cc2ncccn2)C[C@H]1c1cn2c(C3CCOCC3)ncc2c(=O)[nH]1 [IMR-687]
Assay result: 8.00

---

# Assay summary: Brain and plasma exposure in mice
# Assay type: in vivo, C57Bl/6J mice
# Test conditions: C57Bl/6J, mouse, brain/plasma, 10 mg/kg/day

Structure: C[C@@H]1CN(Cc2ncccn2)C[C@H]1c1cn2c(C3CCOCC3)ncc2c(=O)[nH]1
Kp at 5 days: 0.07

---

# Target or test system: PDE8B (Homo sapiens, UniProt O95263)
pIC50: −log10 of the molar value.
Measure name: pIC50

Structure: C[C@@H]1CN(Cc2ncccn2)C[C@H]1c1cn2c(C3CCOCC3)ncc2c(=O)[nH]1
Measure name: pIC50
Assay result: < 4.00

---

# Target or test system: PDE4B2 (Homo sapiens)
# Sequence (Q07343 1-564 isoform Q07343-2): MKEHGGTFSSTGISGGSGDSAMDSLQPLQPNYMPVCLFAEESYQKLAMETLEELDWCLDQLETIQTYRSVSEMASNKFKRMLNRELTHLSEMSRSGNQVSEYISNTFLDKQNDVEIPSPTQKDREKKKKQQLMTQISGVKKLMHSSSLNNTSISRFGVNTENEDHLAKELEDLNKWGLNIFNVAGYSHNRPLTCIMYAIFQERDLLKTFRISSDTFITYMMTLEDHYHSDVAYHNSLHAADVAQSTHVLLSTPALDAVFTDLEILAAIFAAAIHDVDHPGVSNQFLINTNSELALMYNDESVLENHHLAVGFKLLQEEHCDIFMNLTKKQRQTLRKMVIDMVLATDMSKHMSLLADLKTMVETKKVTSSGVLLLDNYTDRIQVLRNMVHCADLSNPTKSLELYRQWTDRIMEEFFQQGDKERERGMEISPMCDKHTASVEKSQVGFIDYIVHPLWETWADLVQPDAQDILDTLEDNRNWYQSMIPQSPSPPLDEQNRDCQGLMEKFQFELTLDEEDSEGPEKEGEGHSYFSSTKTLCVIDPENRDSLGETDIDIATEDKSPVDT
Measure name: IC50

Structure: C[C@@H]1CN(Cc2ncccn2)C[C@H]1c1cn2c(C3CCOCC3)ncc2c(=O)[nH]1
Assay result: > 100 µM

---

# Target or test system: PDE2A3 (Homo sapiens)
pIC50: −log10 of the molar value.

Compound: C[C@@H]1CN(Cc2ncccn2)C[C@H]1c1cn2c(C3CCOCC3)ncc2c(=O)[nH]1 [IMR-687]
pIC50: < 4.00

---

# Target or test system: PDE4C2 (Homo sapiens)
pIC50: −log10 of the molar value.

Structure: C[C@@H]1CN(Cc2ncccn2)C[C@H]1c1cn2c(C3CCOCC3)ncc2c(=O)[nH]1
pIC50: < 4.00

---

# Target or test system: UniProt:Q9HCR9
Measure name: IC50

Structure: C[C@@H]1CN(Cc2ncccn2)C[C@H]1c1cn2c(C3CCOCC3)ncc2c(=O)[nH]1
Target or test system: UniProt:Q9HCR9
Assay result: > 100 µM

---

# Target or test system: PDE4B3 (Homo sapiens, UniProt Q07343)
Measure name: IC50

Structure: C[C@@H]1CN(Cc2ncccn2)C[C@H]1c1cn2c(C3CCOCC3)ncc2c(=O)[nH]1
Measure name: IC50
Assay result: > 100 µM
